# System: Apolipoprotein B (Apo B) (NM_000384)
# assay_remarks: Apo B gene expression in Hep3B cells after Lipofectamine 2000 transfection, real-time PCR SYBR green (Example 50)
# Assay type: cell-based, Homo Sapiens
# stated_conditions: Complete IC50 data evaluated by SYBR green; Apo B mRNA, Hep3B cells, 24 hours; 3 biological replicates; read-out: IC50
Strand notation (5' to 3'): a small letter for the sugar, then the base; units joined by * are phosphorothioate-linked, units joined directly phosphodiester-linked; [ ] holds rarer units or linkages, { } end groups; capitals alone tell only the bases. e = 2'-O-(2-methoxyethyl) (MOE); [5mC] = 5-methylcytosine; d = 2'-deoxy (DNA)
recorded_endpoint: IC50 (nM)

Mipomersen (DNA eG*e[5mC]*e[5mC]*eT*e[5mC]*dA*dG*dT*d[5mC]*dT*dG*d[5mC]*dT*dT*d[5mC]*eG*e[5mC]*eA*e[5mC]*e[5mC]) [Oligonucleotide 120, "Mipomersen, which is a stereorandom oligonucleotide mixture (Oligonucleotides 104, 105 ... compared to 120)", reference compound]; 4.39

###

# Test system: complementary RNA
# assay_remarks: Thermal denaturation experiment (Tm) of DNA strand with complementary RNA (Example 49)
# Format: binding
# stated_conditions: duplex with complementary RNA, equimolar 0.5 μM in 1×PBS; first derivative of 254 nm absorbance curve
[Rp] = phosphorothioate linkage, Rp; [Sp] = phosphorothioate linkage, Sp
recorded_endpoint: Tm (° C.) ± 0.5 (°C)

(Rp, Rp, Sp, Rp, Rp, Sp, Rp, Rp, Sp, Rp, Rp, Sp, Rp, Rp, Sp, Rp, Rp, Sp, Rp)-d[GsCsCsTsCsAsGsTsCsTsGsCsTsTsCsGsCsAsCsC] (DNA GCCTCAGTCTGCTTCGCACC; DNA, linkages [Rp][Rp][Sp][Rp][Rp][Sp][Rp][Rp][Sp][Rp][Rp][Sp][Rp][Rp][Sp][Rp][Rp][Sp][Rp] (s phosphorothioate, o phosphodiester), methylation of C not given here) [Oligonucleotide 114]; 65.2
(Sp, Rp, Rp, Sp, Rp, Rp, Sp, Rp, Rp, Sp, Rp, Rp, Sp, Rp, Rp, Sp, Rp, Rp, Sp)-d[GsCsCsTsCsAsGsTsCsTsGsCsTsTsCsGsCsAsCsC] (DNA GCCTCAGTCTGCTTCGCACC; DNA, linkages [Sp][Rp][Rp][Sp][Rp][Rp][Sp][Rp][Rp][Sp][Rp][Rp][Sp][Rp][Rp][Sp][Rp][Rp][Sp] (s phosphorothioate, o phosphodiester), methylation of C not given here) [Oligonucleotide 115]; 65.2
119 (DNA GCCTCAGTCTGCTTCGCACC; unmodified DNA) [Oligonucleotide 119]; 73.4

###

# Tested on: Apolipoprotein B (Apo B) (NM_000384)
# assay_remarks: Apo B gene expression in Hep3B cells after Lipofectamine 2000 transfection, real-time PCR SYBR green (Example 50)
# Format: cell-based, Homo Sapiens
# stated_conditions: Complete IC50 data evaluated by SYBR green; Apo B mRNA, Hep3B cells, 24 hours; 3 biological replicates; read-out: IC50
pIC50: −log10 of the molar value. [Rp] = phosphorothioate linkage, Rp; [Sp] = phosphorothioate linkage, Sp
Entries annotated with measured pIC50
recorded_endpoint: pIC50

(Sp, Rp, Rp, Rp, Rp, Rp, Rp, Rp, Rp, Rp, Rp, Rp, Rp, Rp, Rp, Rp, Rp, Rp, Sp)-d[GsCsCsTsCsAsGsTsCsTsGsCsTsTsCsGsCsAsCsC] (DNA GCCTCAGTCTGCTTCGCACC; DNA, linkages [Sp]1 [Rp]17 [Sp]1 (s phosphorothioate, o phosphodiester), methylation of C not given here) [Oligonucleotide 105]; 8.54
(Rp, Rp, Sp, Rp, Rp, Sp, Rp, Rp, Sp, Rp, Rp, Sp, Rp, Rp, Sp, Rp, Rp, Sp, Rp)-d[GsCsCsTsCsAsGsTsCsTsGsCsTsTsCsGsCsAsCsC] (DNA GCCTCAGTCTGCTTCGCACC; DNA, linkages [Rp][Rp][Sp][Rp][Rp][Sp][Rp][Rp][Sp][Rp][Rp][Sp][Rp][Rp][Sp][Rp][Rp][Sp][Rp] (s phosphorothioate, o phosphodiester), methylation of C not given here) [Oligonucleotide 114]; 8.28
(Sp, Rp, Sp, Rp, Sp, Rp, Sp, Rp, Sp, Rp, Sp, Rp, Sp, Rp, Sp, Rp, Sp, Rp, Sp)-d[GsCsCsTsCsAsGsTsCsTsGsCsTsTsCsGsCsAsCsC] (DNA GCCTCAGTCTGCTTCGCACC; DNA, linkages [Sp][Rp][Sp][Rp][Sp][Rp][Sp][Rp][Sp][Rp][Sp][Rp][Sp][Rp][Sp][Rp][Sp][Rp][Sp] (s phosphorothioate, o phosphodiester), methylation of C not given here) [Oligonucleotide 108]; 8.50

Source: patent US10590413B2
